# target or test system: Metabotropic glutamate receptor 7 (Homo sapiens, UniProt Q14831)
# Sequence (Q14831 whole entry): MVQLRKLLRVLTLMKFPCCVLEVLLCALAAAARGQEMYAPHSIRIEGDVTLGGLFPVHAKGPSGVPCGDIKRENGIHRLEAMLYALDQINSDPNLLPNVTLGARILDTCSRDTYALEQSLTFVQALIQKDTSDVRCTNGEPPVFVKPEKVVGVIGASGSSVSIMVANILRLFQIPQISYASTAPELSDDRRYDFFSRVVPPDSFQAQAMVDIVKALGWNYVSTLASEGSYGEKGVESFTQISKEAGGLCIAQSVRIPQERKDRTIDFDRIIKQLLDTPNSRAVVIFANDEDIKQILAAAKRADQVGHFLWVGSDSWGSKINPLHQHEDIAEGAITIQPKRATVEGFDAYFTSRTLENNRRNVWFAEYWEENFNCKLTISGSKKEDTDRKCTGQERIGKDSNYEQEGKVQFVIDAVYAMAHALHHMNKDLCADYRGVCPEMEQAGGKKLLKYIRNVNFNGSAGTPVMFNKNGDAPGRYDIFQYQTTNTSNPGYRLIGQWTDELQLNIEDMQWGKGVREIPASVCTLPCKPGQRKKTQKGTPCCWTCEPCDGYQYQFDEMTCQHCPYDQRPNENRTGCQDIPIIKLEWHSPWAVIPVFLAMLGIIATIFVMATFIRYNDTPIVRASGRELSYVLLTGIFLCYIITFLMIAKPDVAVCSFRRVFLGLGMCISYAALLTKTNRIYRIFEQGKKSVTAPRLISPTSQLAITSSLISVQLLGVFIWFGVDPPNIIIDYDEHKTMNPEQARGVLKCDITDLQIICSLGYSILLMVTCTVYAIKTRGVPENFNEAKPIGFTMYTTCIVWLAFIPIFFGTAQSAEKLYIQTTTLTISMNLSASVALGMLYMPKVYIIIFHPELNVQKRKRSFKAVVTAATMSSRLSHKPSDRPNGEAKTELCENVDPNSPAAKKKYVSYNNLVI
# test details: Agonist activity at human mGluR7 expressed in CHO cells expressing CRE-Luc reporter gene assessed as reduction in forskolin-stimulated cAMP production preincubated for 15 mins followed by forskolin stimulation and measured after 5 hrs by luminescence based Steady glo assay
# Type: cell-based
Entries and their EC50 values follow.
Write it as a number; the unit nM goes unstated.

>  <smiles representation>
C[C@H](C(=O)NC1Cc2ccccc2C1)c1ccccc1

>  <readout type>
EC50

>  <observed value>
113

$$$$
>  <smiles representation>
C[C@H](C(=O)N[C@H]1COc2ccccc2[C@@H]1S(C)(=O)=O)c1ccc(F)cc1

>  <readout type>
EC50

>  <observed value>
7

$$$$
>  <smiles representation>
C[C@H](C(=O)NC1Cc2ccccc2C1)c1ccc(F)cc1

>  <readout type>
EC50

>  <observed value>
55

$$$$
>  <smiles representation>
O=C(Cc1ccc(Cl)cc1)NC1Cc2ccccc2C1

>  <readout type>
EC50

>  <observed value>
156

$$$$

The record that follows has no EC50 shown yet.
**Query** Requested field: EC50. Item: C[C@@H](C(=O)NC1Cc2ccccc2C1)c1ccccc1
**Result** 1340
